biological target: hGcgR (Homo sapiens, UniProt P47871); assay: Functional cAMP activation in the presence of 0.1% casein (no HSA); type: cell-based; conditions: read-out: Relative cAMP EC50, hGcgR;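 note: intracellular cAMP rise after 30 min at 37 °C, read by HTRF against a cAMP standard curve, scaled from buffer only (0%) to maximal control ligand response (100%)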
Sequence (P47871 26-477): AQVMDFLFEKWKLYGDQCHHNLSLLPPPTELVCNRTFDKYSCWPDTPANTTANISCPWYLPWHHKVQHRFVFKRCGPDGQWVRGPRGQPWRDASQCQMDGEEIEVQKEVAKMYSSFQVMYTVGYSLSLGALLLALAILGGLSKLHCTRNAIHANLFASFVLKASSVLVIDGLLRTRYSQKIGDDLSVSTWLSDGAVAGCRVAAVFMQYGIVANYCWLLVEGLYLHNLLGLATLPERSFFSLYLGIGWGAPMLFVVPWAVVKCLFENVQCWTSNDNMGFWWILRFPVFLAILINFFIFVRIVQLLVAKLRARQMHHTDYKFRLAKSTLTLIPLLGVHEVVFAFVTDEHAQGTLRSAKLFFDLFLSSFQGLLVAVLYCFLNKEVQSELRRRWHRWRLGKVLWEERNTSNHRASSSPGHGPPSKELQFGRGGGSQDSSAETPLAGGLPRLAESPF
Starred links: 1 amine or outer side, 2 acyl side, 3 side chain; linkers in the order of their positions; H or OH if unused. Non-standard residues stand in square brackets, D forms with d. Groups on a side chain read outwards from the residue. *: point of attachment. C18 diacid = O=C(O)CCCCCCCCCCCCCCCCC(=O)*; αMePhe(2-F) = C[C@](N)(Cc1ccccc1F)C(=O)O; γGlu = O=C(O)[C@H](CCC(=O)[*:2])N[*:1]; αMe4Pal = C[C@](N)(Cc1ccncc1)C(=O)O; αMeY = C[C@](N)(Cc1ccc(O)cc1)C(=O)O; 4Pal = N[C@@H](Cc1ccncc1)C(=O)O; αMeL = CC(C)C[C@](C)(N)C(=O)O; αMeS = C[C@](N)(CO)C(=O)O; Orn = NCCC[C@H](N)C(=O)O; AEEA = NCCOCCOCC(=O)O; Aib = CC(C)(N)C(=O)O
// assign class 1 if EC50 falls strictly below 4 nM, else class 0 (ties count as class 0)

Solved entries (count: 2):
{"SUBSTANCE": "H-Y[Aib]QGT[αMePhe(2-F)]TSD[4Pal][αMeS]I[αMeL]LD[Orn]K([AEEA-AEEA-γGlu-C18 diacid])AQ[Aib][Orn]FI[dE][αMeY]LIEGGPSSGEPPPSEG-NH2 [Example 490]", "GROUP LABEL": "class 1"}
{"SUBSTANCE": "H-Y[Aib]QGT[αMePhe(2-F)]TSD[4Pal][αMeS]I[αMeL]LD[Orn]K([γGlu-γGlu-C18 diacid])AQ[Aib][Orn]FI[dE][αMeY]LSEGGPSSGEPPPSGSE-NH2 [Example 560]", "GROUP LABEL": "class 1"}

## Input Please state whether EC50 is below 4 nM for H-Y[Aib]QGT[αMePhe(2-F)]TSD[4Pal][αMeS]I[αMeL]LD[Orn]K([AEEA-γGlu-C18 diacid])AQ[αMe4Pal]EFI[dE][αMeY]LIEGGPSSGEPPPSGGGE-NH2 [Example 742]
## Output class 1

## Input Please state whether EC50 is below 4 nM for H-Y[Aib]QGT[αMePhe(2-F)]TSD[4Pal]SILLDKK([γGlu-γGlu-C18 diacid])AQ[Aib]AFIEYLEEGGPSSGAPPPSGAGE-NH2 [Example 620]
## Output class 0
